Taken from patent US20240247024A1.

Tested on: HSC-2 human oral cancer cell line
Assay: MTT cell proliferation assay, HSC-2
Format: cell-based
Conditions: 48 h incubation
measure.name: % of DMSO control at 100 μM, HSC-2, 48 h

// recorded % of DMSO control at 100 μM, HSC-2, 48 h for COC(=O)[C@H](CCN(C/C=C/c1ccc(C#N)cc1)C[C@H]1O[C@@H](n2cnc3c(N)ncnc32)[C@H](O)[C@@H]1O)NC(=O)CC(C)(C)c1c(C)cc(C)cc1OC(C)=O [GYZ-573] : 69 % of DMSO control

compound CCCOC(=O)[C@H](CCN(C/C=C/c1ccc(C#N)cc1)C[C@H]1O[C@@H](n2cnc3c(N)ncnc32)[C@H](O)[C@@H]1O)NC(=O)CC(C)(C)c1c(C)cc(C)cc1OC(C)=O [GYZ-580] , % of DMSO control at 100 μM, HSC-2, 48 h observed: 41 % of DMSO control

The recorded % of DMSO control at 100 μM, HSC-2, 48 h for entry COC(=O)[C@@H](N)CCN(C/C=C/c1ccc(C#N)cc1)C[C@H]1O[C@@H](n2cnc3c(N)ncnc32)[C@H](O)[C@@H]1O [GYZ-494] equals 100 % of DMSO control

---

Biological target: NNMT (Homo sapiens)
Sequence (P40261 whole entry, species assumed): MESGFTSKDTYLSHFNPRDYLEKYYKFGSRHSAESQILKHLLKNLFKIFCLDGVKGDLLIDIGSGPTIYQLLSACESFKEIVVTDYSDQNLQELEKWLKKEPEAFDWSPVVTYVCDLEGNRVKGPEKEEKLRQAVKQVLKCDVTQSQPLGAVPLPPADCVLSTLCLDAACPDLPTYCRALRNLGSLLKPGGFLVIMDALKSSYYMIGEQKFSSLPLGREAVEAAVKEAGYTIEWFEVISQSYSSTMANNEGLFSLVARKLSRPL
Assay: NNMT assay (HILIC-MS/MS, formation of MNA)
Details: read-out: IC50 values; Table 1, alkene linked aromatics; NA 200 μM, SAM 8.5 μM; maximum concentration tested 25 μM
pIC50: −log10 of the molar value. Where “and” joins values, the source holds several entries; their conditions need not be identical. Equal entries are not always repeated.
measure.name: pIC50

Record excerpt, results attached:
{"columns": ["smi", "pIC50"],
 "data": [
  ["N#Cc1ccc(/C=C/CN(CC[C@H](N)C(=O)O)C[C@H]2O[C@@H](n3cnc4c(N)ncnc43)[C@H](O)[C@@H]2O)cc1F", "> 8.30"],
  ["Nc1ncnc2c1ncn2[C@@H]1O[C@H](CN(C/C=C/c2ccc(B(O)O)cc2)CC[C@H](N)C(=O)O)[C@@H](O)[C@H]1O", "< 4.60"],
  ["Nc1ncnc2c1ncn2[C@@H]1O[C@H](CN(C/C=C/c2ccccc2C(F)(F)F)CC[C@H](N)C(=O)O)[C@@H](O)[C@H]1O", 5.54],
  ["Nc1ncnc2c1ncn2[C@@H]1O[C@H](CN(C/C=C/c2ccc(C(F)(F)F)cc2)CC[C@H](N)C(=O)O)[C@@H](O)[C@H]1O", 5.86],
  ["Nc1ncnc2c1ncn2[C@@H]1O[C@H](CN(C/C=C/c2c(Cl)cccc2Cl)CC[C@H](N)C(=O)O)[C@@H](O)[C@H]1O", "< 4.60"]
]}

Lookup result for Nc1ncnc2c1ncn2[C@@H]1O[C@H](CN(C/C=C/c2cccc(B(O)O)c2)CC[C@H](N)C(=O)O)[C@@H](O)[C@H]1O ; measured pIC50: 5.78

Field pIC50 (entry Nc1ncnc2c1ncn2[C@@H]1O[C@H](CN(C/C=C/c2ccc(C(=O)O)cc2)CC[C@H](N)C(=O)O)[C@@H](O)[C@H]1O ) reads < 4.60

Value of pIC50 reported for the compound Nc1ncnc2c1ncn2[C@@H]1O[C@H](CN(C/C=C/c2cccc(C(F)(F)F)c2)CC[C@H](N)C(=O)O)[C@@H](O)[C@H]1O is 6.79 and 6.78
